Hey, just so you know, these numbers are from the METLIN SMRT retention time set (Domingo-Almenara et al. 2019).

ASSAY NOTES: gradient 5% acetonitrile 3 min, to 50% in 2 min, to 85% in 15 min, held 3 min, 100 µL/min
CONDITION INFO: column: Zorbax Extend-C18 2.1 x 50 mm; eluents: water / acetonitrile, 0.1% formic acid
READOUT LABEL: RP-LC retention time (s)

Guide cases for RP-LC retention time, answers given:
COMPOUND: CCOC(=O)C1CCN(C(=O)c2cc(=O)c(OCc3ccc(F)cc3)cn2C)CC1
REPORTED VALUE: 750
--
COMPOUND: Cc1[nH]c(C(=O)N2CCC(CC(=O)N3CCN(c4ccccn4)CC3)CC2)c(C)c1C(=O)OC(C)C
REPORTED VALUE: 628
--
COMPOUND: CCCCn1c(=O)c2ccccc2n(Cc2nc(-c3ccccc3Br)no2)c1=O
REPORTED VALUE: 1170
--
COMPOUND: COc1ccc(CC(=O)N2CCn3cnnc3C2)cc1Cl
REPORTED VALUE: 621
--
COMPOUND: COc1cccc(-c2noc(Cc3nnc(-c4cccc(C)c4)o3)n2)c1OC
REPORTED VALUE: 961
--
COMPOUND: CN(C)C(=O)c1ccc2c(c1)N(CC(=O)N1CCN(c3ccccn3)CC1)C(=O)CO2
REPORTED VALUE: 784
--
COMPOUND: O=C(Nc1ccc2c(c1)CCCN2S(=O)(=O)c1ccccc1)OCc1ccccc1
REPORTED VALUE: 949
--
COMPOUND: Cc1oc(C2CCN(S(=O)(=O)c3ccc(C(C)C)cc3)CC2)nc1C(=O)N1CCCC1
REPORTED VALUE: 1070
--
COMPOUND: Cc1c(Cl)cccc1NC(=O)C1CCCN(c2nnc(C)c3c(C)n(-c4ccccc4)nc23)C1 (centres undefined)
REPORTED VALUE: 784
--
COMPOUND: CCCNc1cc(N2CCC(CCC(=O)Nc3ccc(OC)c(OC)c3)CC2)ncn1
REPORTED VALUE: 648

a: CC1CCCCN1C(=O)Cn1c(=O)n(C2CCCCC2)c(=O)c2ccccc21 (centres undefined)
b: O=C(CN1CCC(c2nc(-c3cccs3)no2)CC1)NCc1ccccc1
Form field 'greater RP-LC retention time' accepts a or b ; which applies? Choose, then provide that item's label.
a

P: O=C(CSc1cnc2ccccc2n1)N1CCN(c2ccc(F)cc2)CC1
Q: O=C(Nc1nc(-c2ccc(Cl)c(Cl)c2)cs1)c1ccc(F)c(F)c1
Form field 'greater RP-LC retention time' accepts P or Q ; which applies? Choose, then provide that item's label.
Q
(Q: 1260 s, P: 851 s)

I: Cc1cnn(CC(=O)N2CC(n3cc(COc4ccc(F)cc4)nn3)C2)c1
II: COc1ccc(C2(C(=O)N3CCC(c4nc(CCOCC5CCCC5)no4)C3)CC2)cc1 (centres undefined)
Form field 'greater RP-LC retention time' accepts I or II ; which applies? Choose, then provide that item's label.
II
(II: 1060 s, I: 714 s)
